# METHOD: Toxicity in human RBC assessed as hemolytic activity after 2 hrs
# Type: cell-based, Erythrocyte
# MEASUREMENT CONTEXT: red blood cells
RESULT TYPE: HC50 at 2 h

A selection of reference data follows.
- MOLECULE: "CC(NC(=O)C(CC1CCCCC1)NC(=O)C(N)CCCCN)C(=O)NC(CCCCN)C(=O)NC(CC1CCCCC1)C(=O)NC(C)C(=O)NC(CCCCN)C(=O)NC(CCCCN)C(=O)NC(CC1CCCCC1)C(=O)NC(C)C(=O)NC(CCCCN)C(=O)NC(CC1CCCCC1)C(=O)NC(C)C(=O)NC(CCCCN)C(=O)O (racemic)"
  HC50 at 2 h: "> 100 µM"
- MOLECULE: "CCCCCCC(NC(=O)C(N)CCCCN)C(=O)NC(C)C(=O)NC(CCCCN)C(=O)NC(CCCCCC)C(=O)NC(C)C(=O)NC(CCCCN)C(=O)NC(CCCCN)C(=O)NC(CCCCCC)C(=O)NC(C)C(=O)NC(CCCCN)C(=O)NC(CCCCCC)C(=O)NC(C)C(=O)NC(CCCCN)C(=O)O (racemic)"
  HC50 at 2 h: "> 100 µM"

Now for the molecule whose HC50 at 2 h we want.
Prompt line: For the molecule shown here, `CCCCCC[C@@H](NC(=O)[C@H](N)CCCCN)C(=O)N[C@H](C)C(=O)N[C@H](CCCCN)C(=O)N[C@H](CCCCCC)C(=O)N[C@H](C)C(=O)N[C@H](CCCCN)C(=O)N[C@H](CCCCN)C(=O)N[C@H](CCCCCC)C(=O)N[C@H](C)C(=O)N[C@H](CCCCN)C(=O)N[C@H](CCCCCC)C(=O)N[C@H](C)C(=O)N[C@H](CCCCN)C(=O)O` , give the reported HC50 at 2 h.
Response line: 31 µM

###

# METHOD: Toxicity in human RBC assessed as hemolytic activity after 2 hrs
# Type: cell-based, Erythrocyte
# MEASUREMENT CONTEXT: red blood cells
RESULT TYPE: HC50 at 2 h

Prompt line: For the compound shown here, `C[C@@H](NC(=O)[C@@H](CC1CCCCC1)NC(=O)[C@H](N)CCCCN)C(=O)N[C@H](CCCCN)C(=O)N[C@H](CC1CCCCC1)C(=O)N[C@H](C)C(=O)N[C@H](CCCCN)C(=O)N[C@H](CCCCN)C(=O)N[C@H](CC1CCCCC1)C(=O)N[C@H](C)C(=O)N[C@H](CCCCN)C(=O)N[C@H](CC1CCCCC1)C(=O)N[C@H](C)C(=O)N[C@H](CCCCN)C(=O)O` , give the reported HC50 at 2 h.
Response line: > 42 µM

Prompt line: For the compound shown here, `CC(C)C[C@@H](NC(=O)[C@H](N)CCCCN)C(=O)N[C@H](C)C(=O)N[C@H](CCCCN)C(=O)N[C@H](CC(C)C)C(=O)N[C@H](C)C(=O)N[C@H](CCCCN)C(=O)N[C@H](CCCCN)C(=O)N[C@H](CC(C)C)C(=O)N[C@H](C)C(=O)N[C@H](CCCCN)C(=O)N[C@H](CC(C)C)C(=O)N[C@H](C)C(=O)N[C@H](CCCCN)C(=O)O` , give the reported HC50 at 2 h.
Response line: > 100 µM

Prompt line: For the compound shown here, CC(C)CC(NC(=O)C(N)CCCCN)C(=O)NC(C)C(=O)NC(CCCCN)C(=O)NC(CC(C)C)C(=O)NC(C)C(=O)NC(CCCCN)C(=O)NC(CCCCN)C(=O)NC(CC(C)C)C(=O)NC(C)C(=O)NC(CCCCN)C(=O)NC(CC(C)C)C(=O)NC(C)C(=O)NC(CCCCN)C(=O)O (racemic) , give the reported HC50 at 2 h.
Response line: > 100 µM

###

// logD lookup, one value per entry
# METHOD: Octanol-water partition coefficient, log P at pH 7.4
# Type: physicochemical
Lab note: record the figure alone, no unit after it.

A selection of reference data follows.
- COMPOUND: "CC(C)C[C@@H](NC(=O)[C@H](N)CCCCN)C(=O)N[C@H](C)C(=O)N[C@H](CCCCN)C(=O)N[C@H](CC(C)C)C(=O)N[C@H](C)C(=O)N[C@H](CCCCN)C(=O)N[C@H](CCCCN)C(=O)N[C@H](CC(C)C)C(=O)N[C@H](C)C(=O)N[C@H](CCCCN)C(=O)N[C@H](CC(C)C)C(=O)N[C@H](C)C(=O)N[C@H](CCCCN)C(=O)O"
  logD: -2.3
- COMPOUND: "C[C@@H](NC(=O)[C@@H](Cc1ccccc1)NC(=O)[C@H](N)CCCCN)C(=O)N[C@H](CCCCN)C(=O)N[C@H](Cc1ccccc1)C(=O)N[C@H](C)C(=O)N[C@H](CCCCN)C(=O)N[C@H](CCCCN)C(=O)N[C@H](Cc1ccccc1)C(=O)N[C@H](C)C(=O)N[C@H](CCCCN)C(=O)N[C@H](Cc1ccccc1)C(=O)N[C@H](C)C(=O)N[C@H](CCCCN)C(=O)O"
  logD: -2.52

Now for the molecule whose logD we want.
Prompt line: For the molecule shown here, `C[C@@H](NC(=O)[C@@H](CC1CCCCC1)NC(=O)[C@H](N)CCCCN)C(=O)N[C@H](CCCCN)C(=O)N[C@H](CC1CCCCC1)C(=O)N[C@H](C)C(=O)N[C@H](CCCCN)C(=O)N[C@H](CCCCN)C(=O)N[C@H](CC1CCCCC1)C(=O)N[C@H](C)C(=O)N[C@H](CCCCN)C(=O)N[C@H](CC1CCCCC1)C(=O)N[C@H](C)C(=O)N[C@H](CCCCN)C(=O)O` , give the reported logD.
Response line: -1.73
